# System: T-47D breast
# Test: NCI tumour cell line growth inhibition, 48 h
Please go through the items and note down their TGI.

# lookup: TGI of O=[N+]([O-])C(C(Cl)=C(Cl)Cl)=C(N1CCOCC1)N1CCOCC1
> 100 µM

# lookup: TGI of COc1ccc2cc(C(=O)/C=C/c3cccc(OC)c3OC)ccc2c1
35.5 µM

# lookup: TGI of CNC1C(=O)C(C)C(O)(C(CC(C)C(O)/C=C/C=C/CNC(=O)C(C)(C)C(O)\C(C)=C/C=C\C=C\Cc2cnc(C)o2)OC)C12C(=O)OC2COC (configuration not stated) (tested in a mixture with another compound)
> 93.3 µM

# lookup: TGI of CCOC(=O)C(=C(SC)SC)c1nn2c(=O)cc(C)nc2s1
34.1 µM

# lookup: TGI of COc1ccc(OC(=O)O[C@H]2[C@H](O[C@H]3[C@@H](O)COC(O[C@H]4C[C@H]5[C@@H]6CC=C7C[C@@H](O)CC[C@]7(C)[C@H]6CC[C@]5(C)[C@H]4[C@H](C)C(=O)CCC(C)C)[C@@H]3OC(C)=O)OC[C@@H](O)[C@@H]2O)cc1 (some centres not stated)
19.8 µM

# lookup: TGI of CCCCn1c(C)c(C(=O)OCC)c2cc(OCc3ccc(C(=O)Nn4c(C)ccc4C)cc3)c(Br)cc21
> 100 µM

# lookup: TGI of O=C(O)c1cc(N=Nc2ccc([As](=O)(O)O)cc2)ccc1O
> 100 µM

---

# Tested on: 786-0 renal
# Test: NCI tumour cell line growth inhibition, 48 h
Quantity Kind: TGI

# lookup: TGI of CSc1nc(NC2OC(COC(C)=O)C(OC(C)=O)C(OC(C)=O)C2OC(C)=O)c2c(OC(C)=O)c(C)c(=O)oc2n1 (centres undefined)
> 100 µM

# lookup: TGI of CC(C)=CC(=O)N1CCN(C(=O)C=C(C)C)CC1
> 100 µM

# lookup: TGI of CC(C)=[CH][Sb]([Br])([CH]=C(C)C)([CH]=C(C)C)[CH]=C(C)C
> 100 µM

# lookup: TGI of CNC1C(=O)C(C)C(O)(C(CC(C)C(O)/C=C/C=C/CNC(=O)C(C)(C)C(O)\C(C)=C/C=C\C=C\Cc2cnc(C)o2)OC)C12C(=O)OC2COC (centres undefined) (tested in a mixture with another compound)
73.7 µM

# lookup: TGI of COc1ccc(-n2cc(-c3cc(OC)c(OC)c(OC)c3)[nH]c2=S)cc1OC
> 100 µM

# lookup: TGI of CC12CCCC(CC(=O)c3[nH]c4ccccc4c31)C2 (centres undefined)
18.4 µM

# lookup: TGI of O=C(CNc1ccc(Cl)cc1)Nn1c(-c2ccccc2)nc2ccccc2c1=O
10.2 µM

# lookup: TGI of C[N+](C)(N)CCC[N+](C)(C)N
> 100 µM

# lookup: TGI of Cn1cc(C2=C(c3cn(CCCN=C(N)N)c4ccccc34)C(=O)NC2=O)c2ccccc21
> 25 µM

---

# System: SNB-19 CNS
# Test: NCI tumour cell line growth inhibition, 48 h
Please go through the items and note down their TGI.

# lookup: TGI of COc1ccc(OC(=O)O[C@H]2[C@H](O[C@H]3[C@@H](O)COC(O[C@H]4C[C@H]5[C@@H]6CC=C7C[C@@H](O)CC[C@]7(C)[C@H]6CC[C@]5(C)[C@H]4[C@H](C)C(=O)CCC(C)C)[C@@H]3OC(C)=O)OC[C@@H](O)[C@@H]2O)cc1 (some centres undefined)
6.56 µM

# lookup: TGI of CC(C)CCN=c1cc2n(-c3ccc(Cl)cc3)c3ccccc3nc-2cc1Nc1ccc(Cl)cc1
> 100 µM

# lookup: TGI of CC12CCCC(CC(=O)c3[nH]c4ccccc4c31)C2 (centres undefined)
> 100 µM

# lookup: TGI of COc1ccc(-c2c(C#N)c(NC(=S)NC(=O)c3ccccc3)nc3c2CCCC3)cc1OC
> 100 µM

# lookup: TGI of O=C(O)C1C(C(=O)O)C(C(=O)O)C1C(=O)O (centres undefined)
> 100 µM

# lookup: TGI of CC1=CC(=O)NP(=O)(Oc2ccc(C)cc2)N1 (centres undefined)
> 100 µM

# lookup: TGI of CO/N=C(\C(=O)Nc1cncs1)c1csc(NC(c2ccccc2)(c2ccccc2)c2ccccc2)n1
> 10 µM

# lookup: TGI of COc1ccc(-n2cc(-c3cc(OC)c(OC)c(OC)c3)[nH]c2=S)cc1OC
> 100 µM

# lookup: TGI of CCSc1nc(N2CCOCC2)c2cn[nH]c2n1
> 100 µM
